System: MCF7
procedure.details: The compound was tested for growth inhibitory activity against MCF-7 tumor cell lines
Type: functional, cell-based
reported.conditions: Homo sapiens
pIC50: −log10 of the molar value.
property.name: pIC50

>>> observed_value("O=C1O/C(=C\\Cn2cc(Cl)c(=O)[nH]c2=O)C(OCc2ccccc2)=C1OCc1ccccc1")
4.22
>>> observed_value("O=C1O/C(=C\\Cn2cnc3c(Cl)ncnc32)C(OCc2ccccc2)=C1OCc1ccccc1")
4.40
>>> observed_value("O=C1O/C(=C\\Cn2cc(I)c(=O)[nH]c2=O)C(OCc2ccccc2)=C1OCc1ccccc1")
4.15
>>> observed_value("O=C1O/C(=C\\Cn2cc(Br)c(=O)[nH]c2=O)C(OCc2ccccc2)=C1OCc1ccccc1")
4.40
>>> observed_value("O=C1O/C(=C\\Cn2ccc(=O)[nH]c2=O)C(OCc2ccccc2)=C1OCc1ccccc1")
4.70
>>> observed_value("O=C1O/C(=C\\Cn2cc(F)c(=O)[nH]c2=O)C(OCc2ccccc2)=C1OCc1ccccc1")
4.22
>>> observed_value("O=C1O/C(=C\\Cn2cc(C(F)(F)F)c(=O)[nH]c2=O)C(OCc2ccccc2)=C1OCc1ccccc1")
4.40
